Data provenance is patent US20220323614A1.

- Measured Target: KRAS (WT) as expressed in BxPC-3 cells (human) (UniProt P01116)
- Assay Explanation: cell-based or functional assay
Where no end group is shown, it is not given here. [ ]: non-standard residue; d: D form. The star is where a group is joined. Az2 = aminoazidobutanoic acid, ring closure; Palmitoyl = CCCCCCCCCCCCCCCC(=O)*; Tic = O=C(O)[C@@H]1Cc2ccccc2CN1
Test Readout: pERK WT (BxPC-3 at 4 µM for 12 hours)

I. Ac-[dW][dK][dY][dF][Az2]K(Palmitoyl) (triazole (positions not given here); also: cyclic via triazole, other ring-closing residue not given here) [Ac-wkyf-Az2-Lys(Pal)]
II. Ac-[Tic][dK][dY][dF]K(Palmitoyl) (triazole (positions not given here); also: cyclic via triazole, ring-closing residues not given here) [Ac-(Tic)kyf-Lys(Pal)]
Query :: Lab note: record which item had the higher pERK WT (BxPC-3 at 4 µM for 12 hours), I or II . Refer to your chosen item by its label in the answer.
Result :: I
(I: 1.16, II: 0.806)
